# EXPERIMENT NOTES: NCI Yeast Anticancer Drug Screen. Data for the cln2 rad14 strain (AID 165);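 note: 0% = growth equal to vehicle treated cultures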
# PARTICULARS: S. cerevisiae cln2 rad14 strain, at 50.0 µM
The panel holds about 79,000 compounds, 15% with a hit somewhere; the sample as a whole holds those more often. The source made the active and inactive calls. Cut-off read from the data, not from the text of the source: active = growth inhibition above about 70%; inactive = the rest.
Permitted responses: active, inactive

Some solved cases for reference:
CCCCCOC(=O)C1C(=O)CC(c2ccccc2)C1c1ccccc1 (configuration not stated) ... inactive
Nc1ccccc1N=Nc1c(S(=O)(=O)O)cc2cc(S(=O)(=O)O)cc(O)c2c1O ... inactive
CCC[N+]1=C(/C=C/c2cc(C)c3cccnc3c2O)C(C)(C)c2ccccc21 ... active

Look up the recorded call for CC(=O)CC1(O)C(=O)Nc2ccc(Br)cc21 (configuration not stated) in this test. inactive

Would you mind doing `Cc1ccc(CN2CC(=O)N3Cc4ccccc4CN3C(=O)C2)cc1` as well? inactive

Would you mind doing CCCCC(Cc1ccccc1)(C(=O)O)c1ccccc1 (configuration not stated) as well? active

Would you mind doing `N#C/C(=C\C(Cl)=C/c1ccccc1)C(N)=S` as well? active

====

# EXPERIMENT NOTES: NCI Yeast Anticancer Drug Screen. Data for the cln2 rad14 strain (AID 165);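 note: 0% = growth equal to vehicle treated cultures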
# PARTICULARS: S. cerevisiae cln2 rad14 strain, at 50.0 µM, active compounds read high
The panel holds about 79,000 compounds, 15% with a hit somewhere; the sample as a whole holds those more often.
Catalogue of compounds with associated growth inhibition
Answer format: numeric, % implied, no suffix.

COc1cccc(C2CC(C)(O)Oc3cc4c(cc32)OCO4)c1 (centres undefined) ... 54.6

Record request: growth inhibition value, item O=C1C(=O)C(Cc2ccccc2)(c2ccccc2)C(=O)N1c1ccccc1 (centres undefined) -9.8

Would you mind doing `N#CC(C#N)=C1C(Br)=CCc2ccccc21` as well? 97.5

Would you mind doing `COc1ccc(C(=O)C(CN2CCOCC2)CN2CCOCC2)cc1` as well? 92.3

Would you mind doing `Oc1c(Cl)cccc1-c1ccccc1` as well? 1.9

Would you mind doing CC(=O)CC1CCC(=O)/C=C/C(=O)OC(CC(C)=O)CCC(=O)/C=C/C(=O)O1 (centres undefined) as well? 23.1

Would you mind doing `CN(C)C(=S)NC(=S)Nc1ccc2ccccc2c1` as well? 46.5

Would you mind doing `COc1ccc2nc3cc(Cl)ccc3c(Nc3ccc(S(N)(=O)=O)cc3)c2c1` as well? -8.25

Would you mind doing `CN(CCC1CCCCC1)CCC1CCCCC1` as well? 77.6

Would you mind doing `CCn1c2ccccc2n2c(=O)cc(-c3ccccc3)c(C#N)c12` as well? 12.3

Would you mind doing `Nc1ncnc2c1c(-c1ccccc1)cn2-c1ccccc1` as well? 95.2

Would you mind doing `COc1cccc2c1S(=O)(=O)C(c1ccccc1)=CC2=O` as well? 98.7

Would you mind doing `CC1=NN(c2nc(N)nc(NS(=O)(=O)c3cc(C)c(Cl)cc3S)n2)C(C)(C)C1` as well? 46.2

Would you mind doing `O=C1C=C(c2cccc(-c3ccccc3)c2)CCC1` as well? 95.8

Would you mind doing `O=C(c1ccc(Cl)cc1)c1ccc(OCCCOc2ccc(C(=O)c3ccc(Cl)cc3)cc2)cc1` as well? 38.1

Would you mind doing `CN(C)N=Nc1ccc2[nH]c(=O)[nH]c2c1` as well? 29.1

Would you mind doing `CCN(CC)CCNc1ccc(C)c2sc3c(OC)cccc3c(=O)c12` as well? -2.4

Would you mind doing `CCn1c2ccccc2c(=O)c2c(OC)ccc(OC)c21` as well? 49.4

====

Catalogue of compounds with associated growth inhibition
# EXPERIMENT NOTES: NCI Yeast Anticancer Drug Screen. Data for the sgs1 mgt1 strain (AID 161);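 note: 0% = growth of cultures given vehicle only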
# PARTICULARS: S. cerevisiae sgs1 mgt1 strain, at 5.0 µM (retest, dose inferred, filed as 0.5), active compounds read high
The panel holds about 79,000 compounds, 15% with a hit somewhere; the sample as a whole holds those more often.
Answer format: numeric, % implied, no suffix.

Field: example entries. Status: answers known.
O=[N+]([O-])C(/C=C(\Cl)n1nnc2ccccc21)=C(/Cl)n1nnc2ccccc21 ... 13
CC(=O)N[C@H]1CCC2[C@@H]3CCC4=CC(=O)NCC[C@]4(C)C3CC[C@@]21C (stereo partly specified) ... -3
O=C1C(N2CCOCC2)=C(Cl)C(=O)c2ncccc21 ... 35
COc1ccc(C(C)c2cc3c(cc2O)OCO3)cc1 (stereo unspecified) ... -3
Cc1cc(SCc2ccccc2)cc(C)[o+]1 ... -20

Please find the next compound below.
Record request: growth inhibition value, item `Cn1c2c(c3ccccc31)CCN(CCN1CCN(c3ccccc3)CC1)C2=O` 28

====

# EXPERIMENT NOTES: NCI Yeast Anticancer Drug Screen. Data for the mlh1 rad18 strain (AID 175)
# PARTICULARS: S. cerevisiae mlh1 rad18 strain growth inhibition; at 50.0 µM (retest, dose inferred, filed as 5.0); active compounds read high
About 79,000 compounds went through this panel and 15% of them were active in at least one assay; those are over-represented in the sample as a whole.
criterion met means recorded growth inhibition is 90% or above; criterion not met means it is below 90%.

Some solved cases for reference:
CCNc1cc(N)[n+](CC)c2n[nH]c(/N=C/c3cc(Cl)cc(Cl)c3O)c12 ... criterion not met
CN1C(=O)c2cccc3c([N+](=O)[O-])ccc(c23)C1=O ... criterion not met
CC(C)OC(=O)c1ccc(NC(=O)CCl)cc1 ... criterion not met
CCCCCCCCCCCC(=O)[O][Sn]([CH2]C)([CH2]C)[O]C(=O)CCCCCCCCCCC ... criterion not met
Oc1c(Br)ccc2cccnc12 ... criterion met
O=C(O)c1ccccc1N=N/C(=N\Nc1cc(S(=O)(=O)O)ccc1O)c1ccccc1 ... criterion not met
Cc1cc(Cl)n2c(nc3ccccc32)c1C#N ... criterion met
Cc1ccc(CN2CC(=O)N3Cc4ccccc4CN3C(=O)C2)cc1 ... criterion not met
CN(C)c1ccc(C=Nc2cnc3ccccc3c2)cc1 ... criterion not met
O=[N+]([O-])c1ccc2nc(CCl)[nH]c2c1 ... criterion not met

Dear colleague, could you confirm whether `CN=c1ss/c(=N\C(=S)N(C)C)n1-c1ccccc1` has growth inhibition at or above 90%? criterion not met

Would you mind doing `Nc1ccc2c(c1)S(=O)(=O)c1cc(O)ccc1O2` as well? criterion not met

Would you mind doing `C#CC(CC(C)C)(CC(C)C)OC(=O)Nc1ccccc1` as well? criterion met

Would you mind doing `O=C1C(=O)c2ccccc2C=C1C1CCCCC1` as well? criterion not met

Would you mind doing `C=CCCCCCCCCC(=O)ON(Cc1ccc(O)c(OC)c1)C(=O)C(F)(F)F` as well? criterion not met

Would you mind doing `COc1ccc2nc3c([N+](=O)[O-])ccc(NCCCN(C)C)c3c(N)c2c1` as well? criterion met

====

# EXPERIMENT NOTES: NCI Yeast Anticancer Drug Screen. Data for the rad50 strain (AID 155);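 note: 0% = growth of vehicle-only cultures of the same strain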
# PARTICULARS: S. cerevisiae rad50 strain growth inhibition; at 50.0 µM (retest, dose inferred, filed as 5.0)
Compounds without any hit were thinned out: in the full panel of roughly 79,000, 15% have a hit. Activity calls are given as the source filed them. Rule as the data show it: active = growth inhibition above about 70%; inactive = the rest.
Permitted responses: label 1 = active, label 0 = inactive

Nc1cc(F)c(F)cc1Sc1cc(F)c(F)cc1N ... label 1
CN(C)C(=O)N(C)/N=C/c1ccc([N+](=O)[O-])o1 ... label 0
COc1ccc2nc3cc(Cl)ccc3c(NCCCCN(C)C)c2c1 ... label 0
Cc1ccc(N=Nc2c(C)c(C#N)c(=S)n(C3OC(CO)C(O)C(O)C3O)c2-c2ccccc2)cc1 (stereo unspecified) ... label 0
CCN(CC)c1ccc(NC(C(=O)c2ccccc2)c2ccc3c(c2)OCO3)cc1 (stereo unspecified) ... label 0

Look up the recorded call for CC(Br)Cc1ccc2c(c1)OCO2 (stereo unspecified) in this test. label 0

Would you mind doing `COc1ccc(-c2nc(N)n(C)c2SSc2c(-c3ccc(OC)cc3)nc(N)n2C)cc1` as well? label 0

Would you mind doing COC(=O)C1=C(/C=C/C(C)=O)NC(C)=C(C(=O)OC(C)C)C1c1ccccc1Cl (stereo unspecified) as well? label 1

Would you mind doing `COc1cc2c(c(O)c1C)C(=O)C(Cl)=CC2=O` as well? label 1

Would you mind doing `CN(C)/C=C(\C(=O)c1ccccc1)n1nc(-c2ccccc2)cc1-c1ccccc1` as well? label 0

====

# EXPERIMENT NOTES: NCI Yeast Anticancer Drug Screen. Data for the cln2 rad14 strain (AID 165);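 note: 0% = growth equal to vehicle treated cultures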
# PARTICULARS: S. cerevisiae cln2 rad14 strain, at 50.0 µM (retest, dose inferred, filed as 5.0), active compounds read high
This is part of a sample that, as a whole, favours compounds with a hit. Of some 79,000 tested, about 15% had one in any assay.
yes (1) means recorded growth inhibition is 90% or above; no (0) means it is below 90%.

Some solved cases for reference:
OCC1OC(NC(=S)NCSCCC(F)(F)C(F)(F)C(F)(F)C(F)(F)C(F)(F)C(F)(F)F)C(O)C(O)C1O (stereo not drawn) ... no (0)
N#CC1=C(N)OC(/C=C/c2ccccc2)=C(C#N)C1c1ccccc1 (stereo not drawn) ... no (0)

Dear colleague, could you confirm whether CC(=O)N1C(C(=O)NNc2ccccc2)CSC1c1ccccc1 (stereo not drawn) has growth inhibition at or above 90%? no (0)

Would you mind doing `CCOc1c(N=Nc2ccccc2Cl)c(C)nn1C(=S)S` as well? no (0)

Would you mind doing `c1ccc(NN=C(c2ccccc2)c2ccccc2)cc1` as well? no (0)

Would you mind doing CC(C)C1(Cl)CCC2C3(C)CCCC(C)(C(=O)O)C3CC(Cl)C2(Cl)C1Cl (stereo not drawn) as well? no (0)

Would you mind doing O/N=C1/CC2CCCc3ccc4cccc1c4c32 (stereo not drawn) as well? no (0)

Would you mind doing `CN=C(N)N/N=C(\C)c1ccc2c(c1)Cc1cc(Cl)ccc1-2` as well? no (0)
